Assay: recombinant UMI read abundance after kanamycin selection (control-corrected) (log10(CPM+1)); higher = more efficient recombination; extreme values may be limits of the assay; sequences stand for … in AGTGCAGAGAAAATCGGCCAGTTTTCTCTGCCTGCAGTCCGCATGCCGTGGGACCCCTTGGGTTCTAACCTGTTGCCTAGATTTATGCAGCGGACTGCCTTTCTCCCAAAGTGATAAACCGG…AGGTTGGTTTCACT; site = the 11-nt donor
observable: recombinant UMI read abundance (log10)

As a guide, the following entries are already answered.
CGGGAGGCATGGACCGGTTTTCCCGGTAATCCGTATTTGCC (site CGGGAGACTGG) : 0
ATCTATACATGGACCGGTTTTCCCGGTAATCCGTATTTGAG (site ATCTATACTTT) : 0.0268
CCCTACCCATGGACCGGTTTTCCCGGTAATCCGTATTTGCC (site CCCTATCCTGG) : 0
CACCTTACATGGACCGGTTTTCCCGGTAATCCGTATTTGTC (site CACCTTACTGA) : 0

Name the recorded recombinant UMI read abundance (log10) of the sequence listed here: CTCTAGACATGGACCGGTTTTCCCGGTAATCCGTATTTGCT (site CTCTAAACTAG)
0.681

Name the recorded recombinant UMI read abundance (log10) of the sequence listed here: ATTTAGACATGGACCGGTTTTCCCGGTAATCCGTATTTGGT (site ATTGAGACTAC)
0.0177

Name the recorded recombinant UMI read abundance (log10) of the sequence listed here: AGGGAGACATGGACCGGTTTTCCCGGTAATCCGTATTTGTA (site AGGGAGACTTA)
1.57

Name the recorded recombinant UMI read abundance (log10) of the sequence listed here: CAAGTAACATGGACCGGTTTTCCCGGTAATCCGTATTTGGG (site CAAGTGACTCC)
0.0247

Name the recorded recombinant UMI read abundance (log10) of the sequence listed here: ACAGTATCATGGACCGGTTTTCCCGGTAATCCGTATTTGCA (site ACCGAATCTTG)
0

----------
Experiment: recombinant barcode read abundance after kanamycin selection (control-corrected) (log10(CPM+1)); higher = more efficient recombination; sequences stand for … in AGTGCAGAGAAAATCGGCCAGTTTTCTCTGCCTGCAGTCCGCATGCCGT…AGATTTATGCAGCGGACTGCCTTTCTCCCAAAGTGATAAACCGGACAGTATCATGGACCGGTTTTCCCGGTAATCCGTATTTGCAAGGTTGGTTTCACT; site = the 11-nt target
As shown below, each of these sequences has a reported recombinant barcode read abundance (log10) value.

As a guide, the following entries are already answered.
AAGAAGCCTTGGGTTCTAACCTGTTGCCT (site AAGAAGCCTAG) : 2.01
TGATCTACTTGGGTTCTAACCTGTTGCTT (site TGTTCTACTAA) : 0.0588
ACGGGTACTTGGGTTCTAACCTGTTGCCA (site AAGGGTTCTTG) : 0.355
ATTTGAACTTGGGTTCTAACCTGTTGCCT (site ATTTGGACTAG) : 0.148
GATAGTCCTTGGGTTCTAACCTGTTGCCT (site GATAGTTCTAG) : 0.159
GGTACTACTTGGGTTCTAACCTGTTGCAT (site GGTACTACTAT) : 0.54
CTTACTACTTGGGTTCTAACCTGTTGCCA (site TCCGGCGCTCC) : 0.0182
CATGACCCTTGGGTTCTAACCTGTTGCCT (site CACGACCCTAG) : 0.774
GGACCTACTTGGGTTCTAACCTGTTGCCA (site GGACCTACTTG) : 0.483
CTAGGAGCTTGGGTTCTAACCTGTTGCTT (site CTAGGAGCTCA) : 0.211

Name the recorded recombinant barcode read abundance (log10) of the sequence listed here: CCTAAAACTTGGGTTCTAACCTGTTGCCT (site CCTAAAACTAG)
0.0998

Name the recorded recombinant barcode read abundance (log10) of the sequence listed here: CGGCTGTCTTGGGTTCTAACCTGTTGCCT (site CGGCTGTCTAG)
1.28

Name the recorded recombinant barcode read abundance (log10) of the sequence listed here: ACCTGGCCTTGGGTTCTAACCTGTTGCCT (site ACCTGACCTAG)
0.165

Name the recorded recombinant barcode read abundance (log10) of the sequence listed here: CTACTATCTTGGGTTCTAACCTGTTGCGC (site CTACTATCTGC)
0.937

Name the recorded recombinant barcode read abundance (log10) of the sequence listed here: CAATGCTCTTGGGTTCTAACCTGTTGCCT (site CAATGCTCTAG)
1.84

Name the recorded recombinant barcode read abundance (log10) of the sequence listed here: GTATCCACTTGGGTTCTAACCTGTTGCTA (site GTATGCCCTTA)
0.0561

----------
As shown below, each of these sequences has a reported recombinant UMI read abundance (log10) value.
Assay: recombinant UMI read abundance after kanamycin selection (control-corrected) (log10(CPM+1)); higher = more efficient recombination; extreme values may be limits of the assay; sequences stand for … in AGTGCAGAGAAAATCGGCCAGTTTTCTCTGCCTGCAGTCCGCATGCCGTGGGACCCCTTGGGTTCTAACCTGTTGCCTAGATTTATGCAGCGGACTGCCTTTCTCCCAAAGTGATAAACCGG…AGGTTGGTTTCACT; site = the 11-nt donor

As a guide, the following entries are already answered.
GAATGAGCATGGACCGGTTTTCCCGGTAATCCGTATTTGGA (site GAATGAGCTTC) : 1.28
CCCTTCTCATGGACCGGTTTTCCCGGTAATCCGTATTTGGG (site CCCTTCCCTCC) : 0.00574
TGTACATCATGGACCGGTTTTCCCGGTAATCCGTATTTGAC (site TGTACATCTGT) : 0
GAGCTCCCATGGACCGGTTTTCCCGGTAATCCGTATTTGAT (site GAGCTCACTAT) : 0.00938
CGTGAACCATGGACCGGTTTTCCCGGTAATCCGTATTTGAT (site CGGGAACCTAT) : 0

// below: recombinant UMI read abundance (log10) requested for another sequence
Name the recorded recombinant UMI read abundance (log10) of the sequence listed here: ATCTATACATGGACCGGTTTTCCCGGTAATCCGTATTTGAG (site ATCTATACTGT)
0

----------
Assay: recombinant barcode read abundance after kanamycin selection (control-corrected) (log10(CPM+1)); higher = more efficient recombination; sequences stand for … in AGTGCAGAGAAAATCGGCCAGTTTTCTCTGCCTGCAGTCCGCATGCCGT…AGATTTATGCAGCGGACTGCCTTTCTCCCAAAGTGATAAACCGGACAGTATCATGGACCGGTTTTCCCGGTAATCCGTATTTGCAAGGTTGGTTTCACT; site = the 11-nt target
observable: recombinant barcode read abundance (log10)
Just the number, please, no unit after it.

Name the recorded recombinant barcode read abundance (log10) of the sequence listed here: TACGTGGCTTGGGTTCTAACCTGTTGCCT (site TACGGGGCTAG)
0.502

Name the recorded recombinant barcode read abundance (log10) of the sequence listed here: CAGAGTCCTTGGGTTCTAACCTGTTGCCT (site CAGAGTCCTAG)
1.26

Name the recorded recombinant barcode read abundance (log10) of the sequence listed here: GCGCATGCTTGGGTTCTAACCTGTTGCCT (site GTGCCTGCTAG)
0.41

Name the recorded recombinant barcode read abundance (log10) of the sequence listed here: ATCTATTCTTGGGTTCTAACCTGTTGCCT (site ATCGATGCTAG)
0.198

Name the recorded recombinant barcode read abundance (log10) of the sequence listed here: CGTGGTCCTTGGGTTCTAACCTGTTGCTT (site CGTGGTCCTAT)
0.426

----------
Experiment: recombinant UMI read abundance after kanamycin selection (control-corrected) (log10(CPM+1)); higher = more efficient recombination; extreme values may be limits of the assay; sequences stand for … in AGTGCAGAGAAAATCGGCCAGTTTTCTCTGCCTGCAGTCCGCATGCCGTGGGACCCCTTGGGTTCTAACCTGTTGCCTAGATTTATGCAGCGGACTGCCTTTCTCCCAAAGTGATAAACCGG…AGGTTGGTTTCACT; site = the 11-nt donor
Values of recombinant UMI read abundance (log10) greater than or equal to 0.006 map to condition met; values below map to condition not met.

Reported recombinant UMI read abundance (log10) reaches at least 0.006 for TCAGAGTCATGGACCGGTTTTCCCGGTAATCCGTATTTGCG (site TCAGAGTCTCG) ?
condition met

Reported recombinant UMI read abundance (log10) reaches at least 0.006 for TAAGCAGCATGGACCGGTTTTCCCGGTAATCCGTATTTGCT (site AAAGCAGCTAG) ?
condition met

Reported recombinant UMI read abundance (log10) reaches at least 0.006 for TATTATCCATGGACCGGTTTTCCCGGTAATCCGTATTTGCT (site TATTATCCTAG) ?
condition met

Reported recombinant UMI read abundance (log10) reaches at least 0.006 for AAATGGCCATGGACCGGTTTTCCCGGTAATCCGTATTTGCA (site GAATGGCCTTG) ?
condition not met

Reported recombinant UMI read abundance (log10) reaches at least 0.006 for TATTGGACATGGACCGGTTTTCCCGGTAATCCGTATTTGAC (site GATTGGACTGT) ?
condition met

Reported recombinant UMI read abundance (log10) reaches at least 0.006 for ATTTCTACATGGACCGGTTTTCCCGGTAATCCGTATTTGTC (site ATTTCTACTGA) ?
condition not met

Reported recombinant UMI read abundance (log10) reaches at least 0.006 for TTCAATGCATGGACCGGTTTTCCCGGTAATCCGTATTTGCA (site TTCAATGCTTG) ?
condition not met

Reported recombinant UMI read abundance (log10) reaches at least 0.006 for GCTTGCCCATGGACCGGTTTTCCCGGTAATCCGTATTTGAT (site GCATGCCCTAT) ?
condition not met

Reported recombinant UMI read abundance (log10) reaches at least 0.006 for AAGGTGTCATGGACCGGTTTTCCCGGTAATCCGTATTTGAC (site AAAGTGTCTGT) ?
condition met
